system: HT-1080 fibrosarcoma cells; assay: MTT cell viability assay, HT-1080; assay type: cell-based, human; settings: Homo sapiens, HT-1080, HT-1080, 1% O2; Baf 100 nM or Cq 10 μM where combined; read-out: IC50 of doxorubicin, cells treated with neutralizing agents
Observable: IC50 (nM)
Give the value, in units of nM, as a plain number.

Entry under review: COc1cccc2c1C(=O)c1c(O)c3c(c(O)c1C2=O)C[C@@](O)(C(=O)CO)C[C@@H]3O[C@H]1C[C@H](N)[C@H](O)[C@H](C)O1 [Dox, doxorubicin] . Reported IC50?
448

----------
List of IC50 values.
tested on: HT-1080 fibrosarcoma cells; test: MTT cell viability assay, HT-1080; assay type: cell-based, human; details: Homo sapiens, HT-1080, 72 h, HT-1080, 21% O2, 72 h; read-out: IC50 of anthracyclines
# number only, unit nM dropped from output

- Compound: "COc1cccc2c1C(=O)c1c(O)c3c(c(O)c1C2=O)C[C@@](O)(C(=O)CO)C[C@@H]3O[C@H]1C[C@H](N)[C@H](O)[C@H](C)O1 [Dox, doxorubicin]"
  Units Of Measure: "nM"
  Numeric Result: 73.4

In the following, a different compound is considered.
Bench note: what IC50 did O=C1c2c(O)ccc(O)c2C(=O)c2c(NCCNCCO)ccc(NCCNCCO)c21 [Mtx, mitoxantrone] show?
93.5

----------
tested on: HT1080 cancer cell line; assay: MTT assay, doxorubicin with C2 or C2WY→AA peptide; format: cell-based; details: Homo sapiens, HT-1080, Experiment 1, with C2 0.25 μM, 21% O2
Observable: pIC50
On this scale, pIC50 is minus log10 of a concentration expressed in M (mol/L).

What does the record list as pIC50 for COc1cccc2c1C(=O)c1c(O)c3c(c(O)c1C2=O)C[C@@](O)(C(=O)CO)C[C@@H]3O[C@H]1C[C@H](N)[C@H](O)[C@H](C)O1 ?
7.91
